# EC50 per entry
molecular target: soluble guanylate cyclase (sGC) (Homo sapiens, UniProt Q02108+Q02153); construct: endogenously expressing soluble guanylate cyclase (sGC); endogenous in cells; host or cells: HEK293; assay: sGC-HEK-cGMP assay with LC/MS detection; format: cell-based; conditions: HEK293 whole cells, LC/MS detection of cGMP, 10 μM DETA-NONOate; 50% of high control response (30 μM Compound Y); read-out: Absolute EC50 (nM)- binned (~)

// solved cases for EC50 follow
Oc1cccc(F)c1Cn1nc(-c2ncc(F)c(NCC(O)(C(F)(F)F)C(F)(F)F)n2)cc1-c1ccon1 | > 1000 nM
C[C@](CNc1nc(-c2cc(-c3ccon3)n(Cc3ccccc3F)n2)ncc1F)(NC(CO)c1ccccc1)C(F)(F)F (some centres unmarked) | 100 to 1000 nM
CSCC[C@H](CO)Nc1nc(-c2cc(-c3ccon3)n(Cc3ccccc3F)n2)ncc1F | < 100 nM
O=C(Cc1cc(=O)o[nH]1)Nc1ccnc(-c2cc(-c3ccon3)n(Cc3ccccc3F)n2)n1 | 100 to 1000 nM

Now for the compound whose EC50 we want.
Query: # query: EC50 | item `COc1nn(-c2nc(-c3cc(-c4ccon4)n(Cc4ccccc4F)n3)ncc2F)cc1CC(N)=O` | system: soluble guanylate cyclase (sGC) (Homo sapiens, UniProt Q02108+Q02153)
Result: > 30000 nM

* * *

# EC50 per entry
Biological target: sGC enzyme (Homo sapiens, UniProt Q02108+Q02153)
Construct: host or cells: HEK293 cells expressing GloSensor 40F cGMP
Sequence (Q02153 1-619): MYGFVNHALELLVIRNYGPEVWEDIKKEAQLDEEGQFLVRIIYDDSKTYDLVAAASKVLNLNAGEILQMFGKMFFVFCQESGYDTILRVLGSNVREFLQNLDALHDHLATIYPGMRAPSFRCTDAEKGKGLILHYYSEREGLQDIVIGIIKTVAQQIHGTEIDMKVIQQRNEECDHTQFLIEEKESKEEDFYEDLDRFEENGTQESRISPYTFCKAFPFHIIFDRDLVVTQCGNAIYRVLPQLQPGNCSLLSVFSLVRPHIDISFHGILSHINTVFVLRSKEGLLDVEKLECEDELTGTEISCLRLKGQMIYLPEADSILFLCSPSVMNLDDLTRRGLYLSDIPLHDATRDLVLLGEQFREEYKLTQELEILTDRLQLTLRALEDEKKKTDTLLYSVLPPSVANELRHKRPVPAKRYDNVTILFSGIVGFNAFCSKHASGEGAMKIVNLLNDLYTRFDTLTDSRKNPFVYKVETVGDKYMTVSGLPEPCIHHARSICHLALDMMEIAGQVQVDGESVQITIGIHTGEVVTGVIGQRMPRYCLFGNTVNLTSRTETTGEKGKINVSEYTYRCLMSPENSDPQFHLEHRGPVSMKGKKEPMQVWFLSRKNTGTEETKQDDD
Sequence (Q02108 1-690): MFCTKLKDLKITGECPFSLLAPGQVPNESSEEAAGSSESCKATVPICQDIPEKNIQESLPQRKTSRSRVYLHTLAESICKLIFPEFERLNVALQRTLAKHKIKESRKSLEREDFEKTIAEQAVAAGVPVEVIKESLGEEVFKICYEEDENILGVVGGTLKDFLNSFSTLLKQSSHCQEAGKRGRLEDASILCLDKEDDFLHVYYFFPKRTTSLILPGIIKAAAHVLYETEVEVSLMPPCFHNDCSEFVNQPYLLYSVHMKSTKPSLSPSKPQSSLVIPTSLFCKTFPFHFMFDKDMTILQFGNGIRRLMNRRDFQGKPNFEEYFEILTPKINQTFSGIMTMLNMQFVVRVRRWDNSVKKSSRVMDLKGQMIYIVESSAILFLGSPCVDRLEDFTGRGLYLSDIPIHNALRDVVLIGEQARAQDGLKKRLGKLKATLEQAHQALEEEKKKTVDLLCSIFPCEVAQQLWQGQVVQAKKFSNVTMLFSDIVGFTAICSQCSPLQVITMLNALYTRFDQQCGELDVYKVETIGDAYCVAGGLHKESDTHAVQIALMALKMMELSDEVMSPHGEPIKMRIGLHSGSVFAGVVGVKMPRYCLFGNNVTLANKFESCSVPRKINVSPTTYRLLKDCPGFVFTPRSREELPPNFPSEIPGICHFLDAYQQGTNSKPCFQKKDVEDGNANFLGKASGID
Assay: cGMP GloSensor cell-based assay, 384-well format
Conditions: read-out: sGC_HEK_GloSensor EC50/IC50 Abs (Norm) (nM) Binned (~)

// solved cases for EC50 follow
OCCN1CCN(c2nc(-c3cc(-c4ccon4)n(Cc4ccccc4F)n3)ncc2F)CC1 | < 100 nM
Oc1nc(-c2cc(-c3ccon3)n(Cc3ncccc3F)n2)ncc1F | > 1000 nM
OCCCCNc1nc(-c2cc(-c3ccon3)n(Cc3ccccc3F)n2)ncc1F | < 100 nM
Oc1nc(-c2cc(-c3ccon3)n(Cc3ccc(F)cc3)n2)ncc1F | 100 to 1000 nM
COC(=O)C1CCN(c2nc(-c3cc(-c4ccon4)n(Cc4ccccc4F)n3)ncc2F)CC1 | < 100 nM
O=c1[nH]c(-c2cc(-c3ccon3)n(CCC(F)(F)C(F)(F)F)n2)ncc1F | > 1000 nM
Cc1ccc(Cn2nc(-c3ncc(F)c(O)n3)cc2-c2ccon2)cc1F | < 100 nM
Cc1ccc(Cn2nc(-c3ncc(F)c(O)n3)cc2-c2ccon2)cc1 | < 100 nM

Query: State the recorded EC50 for this entry: `Oc1nc(-c2cc(-c3ccon3)n(CC(F)(F)F)n2)ncc1F`
Result: > 1000 nM

* * *

target: soluble guanylate cyclase (sGC) (Homo sapiens, UniProt Q02108+Q02153); construct: endogenously expressing soluble guanylate cyclase (sGC); endogenous in cells; host or cells: HEK293; assay: sGC-HEK-cGMP assay with LC/MS detection; type: cell-based; conditions: HEK293 whole cells, LC/MS detection of cGMP, 10 μM DETA-NONOate; 50% of high control response (30 μM Compound Y); read-out: Absolute EC50 (nM)- binned (~)
# EC50 per entry

NC1(CNc2nc(-c3cc(-c4ccon4)n(Cc4ccccc4F)n3)ncc2F)CC1 | 100 to 1000 nM

Query: # query: EC50 | item CC(=O)c1cc(-c2ncc(F)c(NC3CCCCC3C(=O)O)n2)nn1Cc1ccccc1F (stereo not shown) | system: soluble guanylate cyclase (sGC) (Homo sapiens, UniProt Q02108+Q02153)
Result: 100 to 1000 nM

Query: # query: EC50 | item `C[C@H]1CCCN(c2nc(-c3cc(-c4ccon4)n(Cc4ccccc4F)n3)ncc2F)[C@H]1C(=O)OCCN1CCOCC1` | system: soluble guanylate cyclase (sGC) (Homo sapiens, UniProt Q02108+Q02153)
Result: > 1000 nM

Query: # query: EC50 | item O=C(OCCNc1nc(-c2cc(-c3ccon3)n(Cc3ccccc3F)n2)ncc1F)C1CCCCN1 (stereo not shown) | system: soluble guanylate cyclase (sGC) (Homo sapiens, UniProt Q02108+Q02153)
Result: 100 to 1000 nM

Query: # query: EC50 | item CC(N)(CNc1nc(-c2cc(-c3ccon3)n(Cc3ccccc3F)n2)ncc1F)C1CC1 (stereo not shown) | system: soluble guanylate cyclase (sGC) (Homo sapiens, UniProt Q02108+Q02153)
Result: 100 to 1000 nM

Query: # query: EC50 | item `CC(=O)c1cc(-c2ncc(F)c(N3CCS(=O)(=O)C(C)(C)C3)n2)nn1Cc1ccccc1F` | system: soluble guanylate cyclase (sGC) (Homo sapiens, UniProt Q02108+Q02153)
Result: > 1000 nM

* * *

target: soluble guanylate cyclase (sGC) (Homo sapiens, UniProt Q02108+Q02153); construct: endogenously expressing soluble guanylate cyclase (sGC); endogenous in cells; host or cells: HEK293; assay: sGC-HEK-cGMP assay with LC/MS detection; assay type: cell-based
quantityKind: EC50

Query: State the recorded EC50 for this entry: `Oc1cc(CNc2nc(-c3cc(-c4ccon4)n(Cc4ccccc4F)n3)ncc2F)on1`
Result: < 100 nM

* * *

target: soluble guanylate cyclase (sGC) (Homo sapiens, UniProt Q02108+Q02153); construct: endogenously expressing soluble guanylate cyclase (sGC); endogenous in cells; host or cells: HEK293; test: sGC-HEK-cGMP assay with LC/MS detection; format: cell-based; settings: HEK293 whole cells, LC/MS detection of cGMP, 10 μM DETA-NONOate; 50% of high control response (30 μM Compound Y); read-out: Absolute EC50 (nM)- binned (~)
quantityKind: EC50

Query: State the recorded EC50 for this entry: CC(=O)c1cc(-c2ncc(F)c(NCC(O)(C(N)=O)C(F)(F)F)n2)nn1Cc1ccccc1F (stereo not shown)
Result: 100 to 1000 nM

Query: State the recorded EC50 for this entry: `CC(=O)c1cc(-c2ncc(F)c(N3CCC4(CCOCC4)C3)n2)nn1Cc1ccccc1F`
Result: 100 to 1000 nM

Query: State the recorded EC50 for this entry: `CC(=O)c1cc(-c2ncc(F)c(N[C@@H](CC(=O)O)C(C)C)n2)nn1Cc1ccccc1F`
Result: 100 to 1000 nM
